Where do the numbers come from? From PubChem BioAssay (EPA / NIEHS).

# Read-out: Monokine induced gamma interferon (MIG), CXCL9 (gene 4283)
# ASSAY_NOTES: BSK_SAg_MIG: BioMAP Diversity Plus: SAg Assay for Monokine induced gamma interferon (MIG) Biomarker Activity (AID 2283092)
# CONDITION_SUMMARY: primary human HUVEC with PBMC; actives raise or lower the signal
The source made the active and inactive calls. The calls were made as follows: active = hit-call score of the fitted dose curve at least 0.9, where 1 is the maximum; inactive = score below 0.9.
Possible outcomes: active, inactive

INSERT INTO assay_data (molecule, group_label) VALUES
  ('ClC1C(Cl)C(Cl)C(Cl)C(Cl)C1Cl (configuration not stated)', 'inactive'),
  ('O=C(O)COc1ccc(Cl)cc1Cl', 'inactive'),
  ('CCc1ccc(C(=O)NN(C(=O)c2cc(C)cc(C)c2)C(C)(C)C)cc1', 'inactive'),
  ('COP(=O)(OC)OC=C(Cl)Cl', 'inactive'),
  ('Oc1ccc(Cl)cc1Cc1ccccc1', 'active'),
  ('CC(C)OC(=O)Nc1cccc(Cl)c1', 'inactive'),
  ('O=S1OCC2C(CO1)C1(Cl)C(Cl)=C(Cl)C2(Cl)C1(Cl)Cl (configuration not stated)', 'active'),
  ('COC(=O)c1ccccc1S(=O)(=O)NC(=O)Nc1nc(C)nc(OC)n1', 'inactive'),
  ('COP(=S)(OC)Oc1ccc(SC)c(C)c1', 'inactive'),
  ('O=C(O)CCCOc1ccc(Cl)cc1Cl', 'inactive'),
  ('Clc1ccccc1-c1nnc(-c2ccccc2Cl)nn1', 'inactive'),
  ('CNC(=O)Oc1cccc(N=CN(C)C)c1', 'inactive'),
  ('O=C(NC(=O)c1c(F)cccc1F)Nc1ccc(OC(F)(F)C(F)OC(F)(F)F)c(Cl)c1 (configuration not stated)', 'inactive'),
  ('C#CCN1C(=O)COc2cc(F)c(N3C(=O)C4=C(CCCC4)C3=O)cc21', 'inactive'),
  ('Cc1cc(C)nc(NC(=O)NS(=O)(=O)c2ccccc2C(=O)OC2COC2)n1', 'inactive'),
  ('COP(=S)(OC)Oc1ccc([N+](=O)[O-])cc1', 'inactive'),
  ('CCOCN(C(=O)CCl)c1c(C)cccc1CC', 'inactive'),
  ('O=[N+]([O-])/N=C1\NCCN1Cc1ccc(Cl)nc1', 'inactive'),
  ('CCC(C)Nc1c([N+](=O)[O-])cc(C(C)(C)C)cc1[N+](=O)[O-] (configuration not stated)', 'inactive'),
  ('O=S(=O)(O)C(F)(F)C(F)(F)C(F)(F)C(F)(F)C(F)(F)C(F)(F)C(F)(F)C(F)(F)F', 'inactive'),
  ('O=[N+]([O-])c1c(Cl)c(Cl)c(Cl)c(Cl)c1Cl', 'inactive'),
  ('COc1nn(CSP(=S)(OC)OC)c(=O)s1', 'inactive'),
  ('CC1(C)C(C=C(Cl)Cl)C1C(=O)OC(C#N)c1ccc(F)c(Oc2ccccc2)c1 (configuration not stated)', 'inactive'),
  ('CC(C)N(C(=O)COc1nnc(C(F)(F)F)s1)c1ccc(F)cc1', 'inactive'),
  ('CCN(CC)C(=O)SCc1ccc(Cl)cc1', 'inactive'),
  ('O=C1c2ccccc2C(=O)N1SC(Cl)(Cl)Cl', 'inactive'),
  ('CCOc1nc(NC)nc(NC(=O)NS(=O)(=O)c2ccccc2C(=O)OC)n1', 'inactive'),
  ('[2H]C1([2H])[n+]2ccccc2-c2cccc[n+]2C1([2H])[2H]', 'inactive'),
  ('CN1CSC(=S)N(C)C1', 'active'),
  ('CC1(c2ccc(Oc3ccccc3)cc2)OC(=O)N(Nc2ccccc2)C1=O (configuration not stated)', 'active'),
  ('CCCN(CCC)c1c([N+](=O)[O-])cc(C(F)(F)F)cc1[N+](=O)[O-]', 'inactive'),
  ('O=C(Nc1ccccc1)Nc1cnns1', 'inactive');
